experiment: NCI Yeast Anticancer Drug Screen. Data for the bub3 strain (AID 167)
assayContext: S. cerevisiae bub3 mutant strain, at 50.0 µM (retest, dose inferred, filed as 5.0), stronger effect = higher value
This is part of a sample that, as a whole, favours compounds with a hit. Of some 79,000 tested, about 15% had one in any assay.
Label no if growth inhibition falls below 40%; label yes in every other case.

Does the compound `Cc1cc2nc(-c3ccccc3[N+](=O)[O-])[nH]c2cc1C` have recorded growth inhibition that is 40% or more?
yes

Does the compound `CC(=O)N(C)c1ccc2c(c1)Cc1ccccc1-2` have recorded growth inhibition that is 40% or more?
yes

Does the compound COC1/C=C\OC2(C)Oc3c(C)c(O)c4c(O)c(c5[nH]c(-c6ccccc6)nc5c4c3C2=O)NC(=O)/C(C)=C\C=C\C(C)C(O)C(C)C(O)C(C)C(OC(C)=O)C1C (stereo unspecified) have recorded growth inhibition that is 40% or more?
yes

Does the compound CCCCCCOC(=O)C(N)Cc1ccc(OC)cc1 (stereo unspecified) have recorded growth inhibition that is 40% or more?
yes

Does the compound `FC(F)(F)c1cccc(COCCN2CCN(Cc3cccc(C(F)(F)F)c3)CC2)c1` have recorded growth inhibition that is 40% or more?
yes

----------
experiment: NCI Yeast Anticancer Drug Screen. Data for the cln2 rad14 strain (AID 165);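 also: 0% = growth equal to vehicle treated cultures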
assayContext: S. cerevisiae cln2 rad14 strain, at 5.0 µM (retest, dose inferred, filed as 0.5), stronger effect = higher value
Procedure: Growth inhibition of yeast strains with defined genetic alterations is measured as a screen for potential anti-cancer activity. Selected strains with alterations in DNA damage repair or cell cycle control were exposed to compounds and growth inhibition was measured relative to vehicle treated controls. The strain used in this assay is cln2 rad14
Compounds without any hit were thinned out: in the full panel of roughly 79,000, 15% have a hit.
measuredAttribute: growth inhibition (%)
Give bare numbers, in %.

# example entries with known answers
[[record]]
molecule = "Cc1ccc(S(=O)(=O)NCCCSCCO)cc1"
recordedresult = 9

[[record]]
molecule = "COC(=O)C1CCN(Cc2ccccc2)CC1=O (configuration not stated)"
recordedresult = 83

[[record]]
molecule = "O=C1C=C/C(=C(/c2ccc(O)c(O)c2)c2ccccc2S(=O)(=O)O)C=C1O"
recordedresult = 5

[[record]]
molecule = "Nc1nc(Cl)cc(Nc2ccc(Cl)c(Cl)c2)n1"
recordedresult = 16


For every listed record, write down its growth inhibition.
1. Cc1ccc(Cl)cc1NN
2. O=C1C2C3C=CC(C2C(=O)N1CN1CCOCC1)C1C2C(=O)N(CN4CCOCC4)C(=O)C2C31 (configuration not stated)
3. CCCCCN(C(=O)CCl)c1ccccc1
4. C/C(=N/NC(=S)N1CCCCC1)c1cccc(/C(C)=N\NC(=S)N2CCCCC2)n1
5. C=C(Br)CN(CC(=C)Br)C(C)=O
6. CCCCCCCC/C(C=O)=C\c1ccccc1
7. CN(C)CC/C(=N\Nc1ccc(Cl)cc1Cl)c1ccccc1

1: -1; 2: -26; 3: 3; 4: -10; 5: 15; 6: -1; 7: 95

Per the record, `[Cl][Pt+2][Cl].[NH-]c1cc2ccccc2cc1[NH-]` has growth inhibition of 1

----------
experiment: NCI Yeast Anticancer Drug Screen. Data for the mec2-1 strain (AID 157)
assayContext: S. cerevisiae mec2-1 strain, at 50.0 µM (retest, dose inferred, filed as 5.0)
About 79,000 compounds went through this panel and 15% of them were active in at least one assay; those are over-represented in the sample as a whole. The source made the active and inactive calls. No stated cut-off is given here; in the data, active means growth inhibition above about 70%; inactive means the rest.
Please answer using one outcome listed in active, inactive

[[record]]
molecule = "COC(=O)/C=C(\\C)Nc1ccc(Cc2ccc(Cl)cc2)cc1"
group = "active"

[[record]]
molecule = "CCOC(=O)c1ccc2c(c1)Cc1cc([N+](=O)[O-])ccc1-2"
group = "inactive"

[[record]]
molecule = "O=C(O)/C=C/C(=O)Nc1cc2c(cc1Br)-c1ccccc1C2Br (stereo unspecified)"
group = "inactive"

[[record]]
molecule = "CCOc1ccc(N=Nc2c(C)nn(C(=S)SC)c2OCC)cc1"
group = "inactive"

[[record]]
molecule = "CCOP(=O)(OCC)C(NC(=O)OCC(Cl)(Cl)Cl)n1nnc(C(=O)OC)c1C(=O)OC (stereo unspecified)"
group = "inactive"

[[record]]
molecule = "CN(C)/N=C1\\CC(c2ccccc2)C(C#N)(C#N)C1(C#N)C#N (stereo unspecified)"
group = "active"

[[record]]
molecule = "CCCC(C(=O)OCCN1CCCC1(C)C)C1CCCC1 (stereo unspecified)"
group = "inactive"

[[record]]
molecule = "O=C(Nc1cccc(C(F)(F)F)c1)C(Cl)=C(Cl)Cl"
group = "active"


Please share the test call associated with `N#CC(C#N)=C/C=C/c1c(Cl)cccc1Cl` .
inactive

Please share the test call associated with CC(CCCN(C)Cc1ccccc1)Nc1ccnc2cc(Cl)ccc12 (stereo unspecified) .
active

Please share the test call associated with `O=c1c(-c2ccccc2)c(-c2ccccc2)c1=O` .
active
